The origin of these recorded values is patent US11840686B2.

System: human PKK mRNA
Test: Antisense inhibition of human PKK mRNA in HepaRG cells, 3,000 nM (Example 1)
Assay type: cell-based
Settings: Table 3; HepaRG cells, electroporation with 3,000 nM antisense oligonucleotide, approx. 24 hours; PKK mRNA by RT-PCR (RTS3454), relative to untreated control cells
Strand notation (5' to 3'): a small letter for the sugar, then the base; units joined by * are phosphorothioate-linked, units joined directly phosphodiester-linked; [ ] holds rarer units or linkages, { } end groups; capitals alone tell only the bases. e = 2'-O-(2-methoxyethyl) (MOE); [5mC] = 5-methylcytosine; d = 2'-deoxy (DNA)
MEASURED PARAMETER: % inhibition (%)
Give just the numeric value; % need not be written.

Solved entries:
SUBSTANCE: 531130 (antisense eT*eT*e[5mC]*eT*eG*dT*dG*dT*d[5mC]*dA*dA*dT*dT*dA*dT*eA*eA*eA*e[5mC]*eA) [compound 531130]
UNIT OF MEASURE: %
% inhibition: 0
--
SUBSTANCE: 531117 (antisense eA*e[5mC]*e[5mC]*e[5mC]*eA*dA*dT*dT*dA*dT*dT*dT*dT*dT*dA*eA*eT*eG*eG*e[5mC]) [compound 531117]
UNIT OF MEASURE: %
% inhibition: 62

Could you now consider this next substance?
Q) Look up % inhibition: 531134 (antisense eT*eT*eA*e[5mC]*e[5mC]*d[5mC]*dA*dT*d[5mC]*dA*dA*dA*dG*d[5mC]*dA*eG*eT*eG*eG*eG) [compound 531134]
A) 6
